- Test system: CSNK1D
- Design: species or system human, MV4-11 + K-562 + COLO205 + SK-N-BE2 + OVCAR-8
- run-parameters: read-out: apparent Kd; compound concentrations:100 nM and 1000 nM (sheet 'Samples'); n = 1
Entries and their potency estimated from few doses
observed-property: potency estimated from few doses (nM)

[[record]]
smiles_code = "Fc1ccc(-c2ncn(C3CCNCC3)c2-c2ccnc(Oc3ccc4c(c3)OCO4)n2)cc1"
unit_abbrev = "nM"
observed = 271

[[record]]
smiles_code = "CN1CCC(n2cnc(-c3ccc(F)cc3)c2-c2ccnc(N)n2)CC1"
unit_abbrev = "nM"
observed = 2.26

[[record]]
smiles_code = "Cl.c1ccc(-c2nc3n(c2-c2ccc4c(c2)OCO4)CCC3)nc1"
unit_abbrev = "nM"
observed = 150

[[record]]
smiles_code = "Fc1ccc(-c2ncn(C3CCNCC3)c2-c2ccnc(Oc3ccc(Oc4ccccc4)cc3)n2)cc1"
unit_abbrev = "nM"
observed = 616


* * *

- Test system: EPHA5
- Parameters: species or system human, MV4-11 + K-562 + COLO205 + SK-N-BE2 + OVCAR-8
- run-parameters: read-out: apparent Kd; compound concentrations:100 nM and 1000 nM (sheet 'Samples'); n = 1
observed-property: potency estimated from few doses (nM)

[[record]]
compound = "COc1cc2ncn(-c3cc(OCCCc4ccccc4)c(C(N)=O)s3)c2cc1OC [GSK205189A]"
observed_property = "potency estimated from few doses"
observed = 720

[[record]]
compound = "NCCNS(=O)(=O)c1ccc(-c2ccnc3[nH]ccc23)cc1 [GSK977617A]"
observed_property = "potency estimated from few doses"
observed = 267

[[record]]
compound = "CC(C)N1CCC(n2cnc(-c3ccc(F)cc3)c2-c2ccnc(N)n2)CC1 [SB-223132]"
observed_property = "potency estimated from few doses"
observed = 545

[[record]]
compound = "CNc1nccc(-c2c(-c3ccc(F)cc3)ncn2C2CCN(C)CC2)n1 [SB-222903]"
observed_property = "potency estimated from few doses"
observed = 465

[[record]]
compound = "Cl.Cl.NCC(C(=O)Nc1cc(Br)c(-c2ccnc3[nH]ccc23)s1)c1ccccc1.NCC(C(=O)Nc1cc(Br)c(-c2ccnc3[nH]ccc23)s1)c1ccccc1 (centres unmarked) [GSK1269851A]"
observed_property = "potency estimated from few doses"
observed = 74.9


* * *

- Tested on: PKN1
- Set-up: species or system human, MV4-11 + K-562 + COLO205 + SK-N-BE2 + OVCAR-8
- run-parameters: read-out: apparent Kd; compound concentrations:0.3nM, 1nM, 3nM, 10nM, 30nM, 100nM, 300nM, 1000nM,R2:0.99748458534068796,slope:1.1297658372901001,EC50 Standard Error, by the legend:Standard error of the EC50 estimation as provided by the drc package.
observed-property: Kd (µM)

[[record]]
compound = "CCn1c(-c2nonc2N)nc2c(C#CC(C)(C)O)nc(OCCN)cc21.CCn1c(-c2nonc2N)nc2c(C#CC(C)(C)O)nc(OCCN)cc21.Cl.Cl [GSK902056A]"
target_system = "PKN1"
unit_abbrev = "µM"
observed = 0.0923


* * *

- System: CSNK1D
- Set-up: species or system human, MV4-11 + K-562 + COLO205 + SK-N-BE2 + OVCAR-8
- run-parameters: read-out: apparent Kd; compound concentrations:0.3nM, 1nM, 3nM, 10nM, 30nM, 100nM, 300nM, 1000nM,R2:0.90408083948088502,slope:1.4813297755061099,EC50 Standard Error, by the legend:Standard error of the EC50 estimation as provided by the drc package.
observed-property: Kd (nM)

[[record]]
molecule = "Cl.NCc1ccc(-c2nc(-c3ccc(Cl)c(O)c3)c(-c3ccncc3)[nH]2)cc1 [SB-476429-A]"
observed_property = "Kd"
observed = 300

